Target: T1, human GLP-1 receptor (human, UniProt P43220 24-463)
T1 construct: whole, on cells; Used as purified plasma membranes of the stably transfected BHK cell line, not as intact cells; also called hGLP-1
Assay: SPA displacement assay; IC50 at 2.0% HSA over IC50 at 0.001% HSA
Procedure: A shift in the binding affinity, $IC50$, is an indication that the peptide in question binds to albumin, and thereby a prediction of a potential protracted pharmacokinetic profile of the peptide in question in animal models. 50 ul (micro liter) HSA ("high albumin" experiment containing 2% HSA), or buffer ("low albumin" experiment containing 0.001% HSA), was added to Optiplate, and 25 ul of test compounds were added. […] The plates were centrifuged (1500 rpm, 10 min) and counted in Topcounter.
Numbered stars: 1 amine (or outer) side, 2 acyl side, 3 side chain; on linkers, the order of the positions; unused ones are H or OH. Square brackets hold non-standard residues; d marks the D form. Side chains are listed from the residue outwards. Ends that are not written are not given here. * marks the point of attachment. Decanoyl(10-(4-HOOC-PhO)) = O=C(O)c1ccc(OCCCCCCCCCC(=O)*)cc1; γGlu = O=C(O)[C@H](CCC(=O)[*:2])N[*:1]; C14 diacid = O=C(O)CCCCCCCCCCCCC(=O)*; AEEA = NCCOCCOCC(=O)O; Aib = CC(C)(N)C(=O)O
experimental-endpoint: Ratio [(IC50/nM) high HSA]/[(IC50/nM) low HSA]
Response field accepts a number only; no unit should be typed.

binder	endpoint-value
HAEGTFTSDVSSYLEEQK([AEEA-AEEA-γGlu-Decanoyl(10-(4-HOOC-PhO))])VRK([AEEA-AEEA-γGlu-Decanoyl(10-(4-HOOC-PhO))])FIAWLVRGRG (also called 28)	144
HAEGTFTSDVSSYLEEEAVRK([AEEA-AEEA-γGlu-C14 diacid])FIAHLVQGRK([AEEA-AEEA-γGlu-C14 diacid]) (also called 17)	387
HAEGTFTSDVSSYLEEQAAHK([AEEA-AEEA-γGlu-Decanoyl(10-(4-HOOC-PhO))])FIEWLVRGK([AEEA-AEEA-γGlu-Decanoyl(10-(4-HOOC-PhO))])GE (also called 21)	163
HAEGTFTSDVSSYLEGQAVRK([AEEA-AEEA-γGlu-Decanoyl(10-(4-HOOC-PhO))])FIEWLVQGK([AEEA-AEEA-γGlu-Decanoyl(10-(4-HOOC-PhO))])GE (also called 13)	804
H[Aib]EGTFTSDVSSYLEEQAARK([AEEA-AEEA-γGlu-Decanoyl(10-(4-HOOC-PhO))])FIEWLVRGK([AEEA-AEEA-γGlu-Decanoyl(10-(4-HOOC-PhO))])GEG (also called 31)	629
H[Aib]EGTFTSDVSSYLEK([AEEA-AEEA-γGlu-C14 diacid])QAARK([AEEA-AEEA-γGlu-C14 diacid])FIAHLVG (also called 19)	60

Proceeding to the next binder to report its Ratio [(IC50/nM) high HSA]/[(IC50/nM) low HSA].
Request: For the binder `HAEGTFTSDVSSYLEEQAARK([AEEA-AEEA-γGlu-Decanoyl(10-(4-HOOC-PhO))])FIAWLVRGRK([AEEA-AEEA-γGlu-Decanoyl(10-(4-HOOC-PhO))])` , what Ratio [(IC50/nM) high HSA]/[(IC50/nM) low HSA] is on record?
Result: 219
